In this section, each of the compounds is paired with its reported MIC.
System: C. albicans T-2077 (DP-205)
Assay: microbe, parasite or virus in culture
Type: cell-based
Conditions: strain no. 15, T-2077 (DP-205), clinical isolate, FKS1 HS1-S645P mutation

compound	measuredAttribute	result
CC[C@H](C)C[C@H](C)CCCCCCCCC(=O)N[C@H]1C[C@@H](O)[C@@H](NCCN)NC(=O)[C@@H]2[C@@H](O)CCN2C(=O)[C@H]([C@H](O)CCN)NC(=O)[C@H]([C@H](O)[C@@H](O)c2ccc(OCc3cn(CCCNC(=O)c4ccc(-c5c6ccc(=[N+](C)C)cc-6oc6cc(N(C)C)ccc56)c(C(=O)[O-])c4)nn3)cc2)NC(=O)[C@@H]2C[C@@H](O)CN2C(=O)[C@H]([C@@H](C)O)NC1=O	MIC	>64 µg/mL

Okay, now this compound:
Q: What value of measured MIC is listed for CN(C)c1ccc2c(-c3ccc(C(=O)NCCCN=[N+]=[N-])cc3C(=O)[O-])c3ccc(=[N+](C)C)cc-3oc2c1 [Compound 5-TMR-azide] ?
Result: >64 µg/mL

====

In this section, each of the compounds is paired with its reported MIC.
Test system: C. glabrata TGL00107
Assay: microbe, parasite or virus in culture
Format: cell-based
Conditions: strain no. 23, TGL00107, parental CST34, FKS mutant
Description: The antifungal activities of compounds 1a, 1 and 2 (collectively: caspofungin derivatives) were compared to that of caspofungin and CSF-BOD using a panel of 49 C. albicans and C. glabrata strains (Tables 1 and 2). […] Minimal inhibitory concentration (MIC) values for all strains were determined using the broth double dilution method and are summarized in FIG. 2 and Table 2. MIC values were determined using the broth double-dilution method. […]

compound	testSystem	result
CC[C@H](C)C[C@H](C)CCCCCCCCC(=O)N[C@H]1C[C@@H](O)[C@@H](NCCNC(=O)CCc2ccc3n2[B-](F)(F)[N+]2=C(C)C=C(C)C2=C3)NC(=O)[C@@H]2[C@@H](O)CCN2C(=O)[C@H]([C@H](O)CCN)NC(=O)[C@H]([C@H](O)[C@@H](O)c2ccc(O)cc2)NC(=O)[C@@H]2C[C@@H](O)CN2C(=O)[C@H]([C@@H](C)O)NC1=O	C. glabrata TGL00107	>64 µg/mL

Q: What value of measured MIC is listed for CN(C)c1ccc2c(-c3ccc(C(=O)NCCCN=[N+]=[N-])cc3C(=O)[O-])c3ccc(=[N+](C)C)cc-3oc2c1 [Compound 5-TMR-azide] ?
Result: >64 µg/mL

Q: How about this compound: CC[C@H](C)C[C@H](C)CCCCCCCCC(=O)N[C@H]1C[C@@H](O)[C@@H](NCCN)NC(=O)[C@@H]2[C@@H](O)CCN2C(=O)[C@H]([C@H](O)CCN)NC(=O)[C@H]([C@H](O)[C@@H](O)c2ccc(OCc3cn(CCCNc4ccc([N+](=O)[O-])c5nonc45)nn3)cc2)NC(=O)[C@@H]2C[C@@H](O)CN2C(=O)[C@H]([C@@H](C)O)NC1=O
Result: >64 µg/mL

====

System: C. albicans T-2077 (DP-205)
Experiment: microbe, parasite or virus in culture
Format: cell-based
Details: strain no. 15, T-2077 (DP-205), clinical isolate, FKS1 HS1-S645P mutation
measuredAttribute: MIC

Sample records with MIC:
smilesText	result
CC[C@H](C)C[C@H](C)CCCCCCCCC(=O)N[C@H]1C[C@@H](O)[C@@H](NCCN)NC(=O)[C@@H]2[C@@H](O)CCN2C(=O)[C@H]([C@H](O)CCN)NC(=O)[C@H]([C@H](O)[C@@H](O)c2ccc(OCc3cn(CCCNc4ccc([N+](=O)[O-])c5nonc45)nn3)cc2)NC(=O)[C@@H]2C[C@@H](O)CN2C(=O)[C@H]([C@@H](C)O)NC1=O	>64 µg/mL
C#CCOc1ccc([C@H](O)[C@@H](O)[C@@H]2NC(=O)[C@@H]3C[C@@H](O)CN3C(=O)[C@H]([C@@H](C)O)NC(=O)[C@@H](NC(=O)CCCCCCCC[C@@H](C)C[C@@H](C)CC)C[C@@H](O)[C@@H](NCCN)NC(=O)[C@@H]3[C@@H](O)CCN3C(=O)[C@H]([C@H](O)CCN)NC2=O)cc1	>64 µg/mL

Okay, now this compound:
Q: Enter reported MIC observed with C. albicans T-2077 (DP-205) for CC[C@H](C)C[C@H](C)CCCCCCCCC(=O)N[C@H]1C[C@@H](O)[C@@H](NCCNC(=O)CCc2ccc3n2[B-](F)(F)[N+]2=C(C)C=C(C)C2=C3)NC(=O)[C@@H]2[C@@H](O)CCN2C(=O)[C@H]([C@H](O)CCN)NC(=O)[C@H]([C@H](O)[C@@H](O)c2ccc(O)cc2)NC(=O)[C@@H]2C[C@@H](O)CN2C(=O)[C@H]([C@@H](C)O)NC1=O
Result: >64 µg/mL
